- Study System: LMPTP-A (Low Molecular Weight Protein Tyrosine Phosphatase-A) enzyme (Homo sapiens (Human), UniProt P24666)
- Sequence (P24666 whole entry): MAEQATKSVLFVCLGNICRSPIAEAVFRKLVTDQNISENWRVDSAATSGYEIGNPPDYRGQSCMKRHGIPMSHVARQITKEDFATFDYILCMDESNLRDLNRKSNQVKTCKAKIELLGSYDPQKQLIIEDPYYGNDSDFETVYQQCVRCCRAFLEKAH
- Protocol Summary: LMPTP primary screening / LMPTP (OMFP) enzyme inhibition assay, fluorescence intensity
- Format: biochemical
- Assay Context: LMPTP-A, OMFP substrate, method of Example 2; read-out: IC50
pIC50: −log10 of the molar value.
Record form. Attribute: pIC50. Fill in for each entry.

Example results:
{"columns": ["Compound", "Value Measured"],
 "data": [
  ["COc1ccc(-c2cc(Nc3ccc(C#N)cc3)c3ccccc3n2)cc1", "6.10 to 6.70"],
  ["COc1ccc(-c2cc(Nc3ccc(CN4CCOCC4)cc3)c3ccccc3n2)cc1", "5.30 to 6.10"],
  ["COc1ccc(-c2cc(Nc3cccc(CN(C)C)c3)c3ccccc3n2)cc1 [Compound G58]", "6.10 to 6.70"]
]}

Qu. # input compound: COc1ccc(-c2cc(NCCCN3CCCCC3)c3cc(C(F)(F)F)ccc3n2)cc1 ; wanted: its pIC50
Ans. < 5.30
